Assay: Mean residence time in Sprague-Dawley rat at 1 mg/kg, iv
Type: ADME, organism-based
Set-up: dose 1 mg/kg, route intravenous
Details: in vivo
MRT listing for selected compounds.
Measured Metric: MRT

{"Cpd Smiles": "CC(C)(C)C#Cc1cc(N(C(=O)[C@H]2CC[C@H](C)CC2)[C@H]2CC[C@H](Oc3cccnc3)CC2)c(C(=O)O)s1", "Obs Value": "3.4 h"}
{"Cpd Smiles": "CC(C)(C)C#Cc1cc(N(C(=O)[C@H]2CC[C@H](C)CC2)[C@H]2CC[C@H](Oc3nccs3)CC2)c(C(=O)O)s1", "Obs Value": "2.8 h"}
{"Cpd Smiles": "CC(C)(C)C#Cc1cc(N(C(=O)[C@H]2CC[C@H](C)CC2)[C@H]2CC[C@H](Oc3ccccn3)CC2)c(C(=O)O)s1", "Obs Value": "5 h"}

====

Assay: Lipophilicity, log D of the compound by chromatography
Format: physicochemical
Decision: chromatographic logD >= 2 yields y, all other cases yield n.

{"Compound": "CC(C)(C#Cc1cc(N(C(=O)[C@H]2CC[C@H](C)CC2)[C@H]2CC[C@H](OC3CCOC3)CC2)c(C(=O)O)s1)CCO (some centres not stated)", "Label": "n"}
{"Compound": "CC(C)(C)C#Cc1cc(N(C(=O)[C@H]2CC[C@H](C)CC2)[C@H]2CC[C@](O)(CO[C@H]3CCOC3)CC2)c(C(=O)O)s1", "Label": "y"}
{"Compound": "CC(C)(C)C#Cc1cc(N(C(=O)[C@H]2CC[C@H](C)CC2)[C@H]2CC[C@H](OC3CCOCC3)CC2)c(C(=O)O)s1", "Label": "y"}
{"Compound": "CC(C)(C)C#Cc1cc(N(C(=O)[C@H]2CC[C@H](C)CC2)[C@H]2CC[C@H](Oc3ccccn3)CC2)c(C(=O)O)s1", "Label": "y"}
{"Compound": "CC(C)(C)C#Cc1cc(N(C(=O)[C@H]2CC[C@H](C)CC2)[C@H]2CC[C@@H](Oc3ccc(O)nn3)CC2)c(C(=O)O)s1", "Label": "n"}
{"Compound": "CC(C)(C)C#Cc1cc(N(C(=O)[C@H]2CC[C@H](C)CC2)[C@H]2CC[C@H](OC3COC3)CC2)c(C(=O)O)s1", "Label": "y"}

====

Assay: Fraction unbound in cell culture medium at 2 uM at pH 7.4 by equilibrium dialysis method
Assay type: ADME
fraction unbound at 2 µM listing for selected molecules.
Measured Metric: fraction unbound at 2 µM

{"Molecule": "CC(C)(C)C#Cc1cc(N(C(=O)[C@H]2CC[C@H](C)CC2)[C@H]2CC[C@H](Oc3cccnc3)CC2)c(C(=O)O)s1", "Measured Metric": "fraction unbound at 2 µM", "Obs Value": 0.03}
{"Molecule": "CC(C)(C)C#Cc1cc(N(C(=O)[C@H]2CC[C@H](C)CC2)[C@H]2C[C@@H](Oc3cccnc3)C2)c(C(=O)O)s1", "Measured Metric": "fraction unbound at 2 µM", "Obs Value": 0.04}
{"Molecule": "CC(C)N(C(=O)C1CCC(F)(F)CC1)c1cc(C#CC(C)(C)C)sc1C(=O)O", "Measured Metric": "fraction unbound at 2 µM", "Obs Value": 0.4}
{"Molecule": "CC(C)N(c1cc(-c2ccccc2)sc1C(=O)O)C(=O)[C@H]1CC[C@H](C)CC1", "Measured Metric": "fraction unbound at 2 µM", "Obs Value": 0.08}
{"Molecule": "CON=C1CCC(N(c2cc(C#CC(C)(C)C)sc2C(=O)O)C(=O)[C@H]2CC[C@H](C)CC2)CC1 (stereo partly drawn)", "Measured Metric": "fraction unbound at 2 µM", "Obs Value": 0.07}
{"Molecule": "CC(C)N(C(=O)[C@@H]1CC[C@@H]2C[C@@H]2CC1)c1cc(C#CC(C)(C)C)sc1C(=O)O", "Measured Metric": "fraction unbound at 2 µM", "Obs Value": 0.05}
{"Molecule": "CC(C)N(c1cc(C#CC(C)(C)C)sc1C(=O)O)C(=O)[C@H]1CC[C@H](Cl)CC1", "Measured Metric": "fraction unbound at 2 µM", "Obs Value": 0.14}
{"Molecule": "CC(C)(C)C#Cc1cc(N(C(=O)[C@H]2CC[C@H](C)CC2)C2CCN(S(C)(=O)=O)CC2)c(C(=O)O)s1", "Measured Metric": "fraction unbound at 2 µM", "Obs Value": 0.17}

====

log10 of EC50 listing for selected compounds.
Tested on: Hepatitis C virus
Test: Antiviral activity against Hepatitis C virus H77 genotype 1a infected in human HuH7 cells assessed as observed antiviral potency after 72 hrs by luciferase reporter gene assay
Assay type: functional, organism-based, Hepacivirus hominis
Settings: genotype 1a H77, Huh-7, 72 h
Measured Metric: log10 of EC50 (log10 of the value in µM)

{"Compound": "CC(C)N(c1cc(C#CC(C)(C)C)sc1C(=O)O)C(=O)[C@H]1CC[C@H](CF)CC1", "Target Under Test": "Hepatitis C virus", "Measured Metric": "log10 of EC50", "Obs Value": -0.77}
{"Compound": "CC1=CC[C@H](C(=O)N(c2cc(C#CC(C)(C)C)sc2C(=O)O)[C@H]2CC[C@](O)(CO[C@H]3CCOC3)CC2)CC1 [RADALBUVIR]", "Target Under Test": "Hepatitis C virus", "Measured Metric": "log10 of EC50", "Obs Value": -1.96}
{"Compound": "CC(C)(C)C#Cc1cc(N(C(=O)[C@H]2CC[C@H](C)CC2)C2CCN(S(C)(=O)=O)CC2)c(C(=O)O)s1", "Target Under Test": "Hepatitis C virus", "Measured Metric": "log10 of EC50", "Obs Value": -1.29}
{"Compound": "CC(C)(C)C#Cc1cc(N(C(=O)[C@H]2CC[C@H](C)CC2)[C@H]2CC[C@H](Oc3nccs3)CC2)c(C(=O)O)s1", "Target Under Test": "Hepatitis C virus", "Measured Metric": "log10 of EC50", "Obs Value": -1.08}
{"Compound": "C[C@H]1CC[C@H](C(=O)N(c2cc(C#CC3(C(F)(F)F)CC3)sc2C(=O)O)[C@H]2CC[C@H](Oc3ccc(O)nn3)CC2)CC1", "Target Under Test": "Hepatitis C virus", "Measured Metric": "log10 of EC50", "Obs Value": -1.21}
{"Compound": "CC(C)(C)C#Cc1cc(N(C(=O)[C@H]2CC[C@H](C)CC2)[C@H]2CC[C@@H](Oc3cccnc3)CC2)c(C(=O)O)s1", "Target Under Test": "Hepatitis C virus", "Measured Metric": "log10 of EC50", "Obs Value": -1.35}
{"Compound": "CC1=CC[C@H](C(=O)N(c2cc(C#CC(C)(C)C)sc2C(=O)O)C(C)C)CC1", "Target Under Test": "Hepatitis C virus", "Measured Metric": "log10 of EC50", "Obs Value": -1.51}
{"Compound": "CC(C)(C)C#Cc1cc(N(CCO)C(=O)[C@H]2CC[C@H](C)CC2)c(C(=O)O)s1", "Target Under Test": "Hepatitis C virus", "Measured Metric": "log10 of EC50", "Obs Value": -0.52}

====

Assay: Fraction unbound in cell culture medium at 2 uM at pH 7.4 by equilibrium dialysis method
Type: ADME

{"Compound": "CC(C)N(C(=O)[C@H]1CC[C@@H]2C[C@@H]2CC1)c1cc(C#CC(C)(C)C)sc1C(=O)O", "fraction unbound at 2 µM": 0.08}
{"Compound": "C[C@@H](CCO)N(c1cc(C#CC(C)(C)C)sc1C(=O)O)C(=O)[C@H]1CC[C@H](C)CC1", "fraction unbound at 2 µM": 0.22}
{"Compound": "CC1=CC[C@@H](C(=O)N(c2cc(C#CC(C)(C)C)sc2C(=O)O)C(C)C)CC1", "fraction unbound at 2 µM": 0.08}
{"Compound": "CC(C)N(c1cc(C#CC(C)(C)C)sc1C(=O)O)C(=O)[C@H]1CC[C@H](CF)CC1", "fraction unbound at 2 µM": 0.18}
{"Compound": "CC(C)(C)C#Cc1cc(N(C(=O)[C@H]2CC[C@H](C)CC2)[C@H]2CC[C@H](O)CC2)c(C(=O)O)s1 [LOMIBUVIR]", "fraction unbound at 2 µM": 0.19}
{"Compound": "CC(C)N(C(=O)C1CCCCCC1)c1cc(C#CC(C)(C)C)sc1C(=O)O", "fraction unbound at 2 µM": 0.11}
{"Compound": "CC1=CC[C@H](C(=O)N(c2cc(C#CC(C)(C)C)sc2C(=O)O)C(C)C)CC1", "fraction unbound at 2 µM": 0.07}
{"Compound": "CC(C)N(C(=O)[C@H]1[C@@H]2CCCC[C@@H]21)c1cc(C#CC(C)(C)C)sc1C(=O)O", "fraction unbound at 2 µM": 0.04}

Values compiled from ChEMBL document CHEMBL3120092.
